Where these numbers come from: patent US9862708B2

I'd appreciate it if you could supply pIC50 values for the items below.
Biological target: human PPARα (Homo sapiens)
Construct: host or cells: proprietary non-human mammalian cells
Sequence (Q07869 whole entry): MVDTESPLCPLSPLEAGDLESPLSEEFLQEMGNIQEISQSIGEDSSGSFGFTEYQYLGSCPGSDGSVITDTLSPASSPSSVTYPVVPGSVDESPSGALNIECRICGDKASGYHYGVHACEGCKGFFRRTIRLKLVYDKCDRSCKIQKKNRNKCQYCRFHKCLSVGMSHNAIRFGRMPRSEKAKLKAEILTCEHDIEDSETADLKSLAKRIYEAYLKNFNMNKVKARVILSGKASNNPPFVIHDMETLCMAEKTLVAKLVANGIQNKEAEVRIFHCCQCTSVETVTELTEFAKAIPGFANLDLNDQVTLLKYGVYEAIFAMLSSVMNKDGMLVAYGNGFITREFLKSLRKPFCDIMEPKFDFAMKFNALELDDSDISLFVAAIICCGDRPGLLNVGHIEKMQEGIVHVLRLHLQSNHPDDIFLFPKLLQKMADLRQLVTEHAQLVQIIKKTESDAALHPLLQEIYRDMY
Experiment: Human PPARα Reporter Assay (luciferase, Indigo Biosciences)
Assay type: cell-based
Conditions: antagonism; luciferase reporter cells, overnight incubation; read-out: PPARα IC50
Description: Human PPARα Reporter Assay The screening of test compounds for agonist or antagonist activities against human PPARα receptors was performed using a commercial kit, Human PPARα Reporter Assay System (Indigo Biosciences, Cat. #IB00111). This nuclear receptor assay system utilizes proprietary non-human mammalian cells engineered to provide constitutive, high-level expression of Human PPARα. […]
The quantity pIC50 is defined as the negative base-10 logarithm of the molar concentration.

The recorded pIC50 for entry `CC(C)(Oc1ccc(CCCC2=NN(c3ccc4ccccc4c3)C(=O)C23CCCC3)cc1)C(=O)O` equals 8.55

The recorded pIC50 for entry `Cc1ccc(N2N=C(CCCc3ccc(OC(C)(C)C(=O)NCC(F)(F)F)cc3)C3(CCCC3)C2=O)cc1C` equals 6.30

The recorded pIC50 for entry `CC(C)(Oc1ccc(CCCC2=NN(c3ccc(OC(F)(F)F)cc3)C(=O)C23CCCC3)cc1)C(=O)NCC(F)(F)F` equals 6.15

The recorded pIC50 for entry CC1(C)C(=O)N(c2ccc(C(F)(F)F)cc2)N=C1CCCc1ccc(OC(C(=O)O)c2ccccc2)cc1 (stereo not shown) equals 8.33
